The origin of these recorded values is patent US7750003B2.

# IC50 per record follows
# tgt: recombinant mTOR (FLAG-tagged, residues 1362-2549) (Homo sapiens, UniProt P42345)
# Sequence (P42345 1362-2549): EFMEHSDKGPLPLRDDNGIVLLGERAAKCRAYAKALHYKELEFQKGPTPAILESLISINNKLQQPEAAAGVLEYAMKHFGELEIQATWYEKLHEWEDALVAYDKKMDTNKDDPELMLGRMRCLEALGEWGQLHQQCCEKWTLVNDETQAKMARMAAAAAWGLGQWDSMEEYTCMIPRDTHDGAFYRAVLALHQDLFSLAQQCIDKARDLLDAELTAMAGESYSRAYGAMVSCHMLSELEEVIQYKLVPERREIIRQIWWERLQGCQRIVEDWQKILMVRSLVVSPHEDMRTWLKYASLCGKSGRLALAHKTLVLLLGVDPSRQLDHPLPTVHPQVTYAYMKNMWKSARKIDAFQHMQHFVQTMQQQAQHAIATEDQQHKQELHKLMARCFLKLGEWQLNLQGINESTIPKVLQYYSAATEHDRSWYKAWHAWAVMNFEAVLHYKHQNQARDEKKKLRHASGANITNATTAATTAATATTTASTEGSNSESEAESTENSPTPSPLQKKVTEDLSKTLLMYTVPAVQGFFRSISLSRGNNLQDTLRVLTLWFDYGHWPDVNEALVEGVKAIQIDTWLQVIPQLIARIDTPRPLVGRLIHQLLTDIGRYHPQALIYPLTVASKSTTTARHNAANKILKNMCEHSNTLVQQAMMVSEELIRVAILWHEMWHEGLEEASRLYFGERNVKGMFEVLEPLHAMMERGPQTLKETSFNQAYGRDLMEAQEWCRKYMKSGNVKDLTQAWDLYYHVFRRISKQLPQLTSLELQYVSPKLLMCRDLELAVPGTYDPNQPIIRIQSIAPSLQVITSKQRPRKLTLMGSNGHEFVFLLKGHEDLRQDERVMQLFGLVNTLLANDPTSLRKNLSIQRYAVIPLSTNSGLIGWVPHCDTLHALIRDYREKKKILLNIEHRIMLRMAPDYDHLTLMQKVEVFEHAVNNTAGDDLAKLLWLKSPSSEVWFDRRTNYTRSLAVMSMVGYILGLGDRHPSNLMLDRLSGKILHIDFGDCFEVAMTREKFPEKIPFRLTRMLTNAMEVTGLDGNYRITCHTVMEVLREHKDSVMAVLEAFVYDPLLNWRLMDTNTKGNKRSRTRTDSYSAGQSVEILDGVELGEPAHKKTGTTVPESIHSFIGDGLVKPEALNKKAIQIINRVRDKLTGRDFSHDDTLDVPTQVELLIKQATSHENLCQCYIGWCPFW
# procedureSummary: In vitro mTOR kinase assay (Test (a), AlphaScreen)
# Type: biochemical
# runConditions: ATP 20 μM, read-out: Test (a): IC50 versus mTOR kinase
The response must be a number in nM with no trailing unit.

CC(C)S(=O)(=O)Cc1cc(N2CCOC[C@@H]2C)nc(-c2ccc(NC(=O)NCCN(C)C)cc2)n1 [Example 20s] :: 620
CS(=O)(=O)Cc1cc(N2CCOCC2)nc(-c2ccc(NC(N)=O)cc2)n1 :: 210
CCNC(=O)Nc1ccc(-c2nc(CS(=O)(=O)C(C)C)cc(N3CCOCC3)n2)cc1 [Example 20l] :: 74

Then this molecule:
In: Please give the measured IC50 for this molecule: C[C@H]1COCCN1c1cc(CN2CCOCC2)nc(-c2ccc(NC(=O)NC3CC3)cc2)n1 [Example 49f]
Out: 200

====

# pIC50 per record follows
# tgt: recombinant mTOR (FLAG-tagged, residues 1362-2549) (Homo sapiens, UniProt P42345)
# procedureSummary: In vitro mTOR kinase assay (Test (a), AlphaScreen)
# runConditions: ATP 20 μM, read-out: Test (a): IC50 versus mTOR kinase
Would you please state pIC50, meaning minus log10 of the concentration in mol/L, as a bare number?

C[C@H]1COCCN1c1cc(CS(C)(=O)=O)nc(-c2cccc(NC(=O)Nc3ccccc3)c2)n1 [Example 3c] :: 5.48
CS(=O)(=O)Cc1cc(N2CCOCC2)nc(-c2ccc(NC(=O)Nc3ccc(F)c(F)c3)cc2)n1 [Example 7k] :: 6.14
COCCCNC(=O)Nc1ccc(-c2nc(CS(C)(=O)=O)cc(N3CCOCC3)n2)cc1 [Example 45c] :: 7.09
COc1ccc(NC(=O)Nc2ccc(-c3nc(N4CCOC[C@@H]4C)cc(C(C)(C)S(C)(=O)=O)n3)cc2)cn1 [Example 24x] :: 7.00
COCCNC(=O)Nc1ccc(-c2nc(N3CCOC[C@@H]3C)cc(C(C)(C)S(C)(=O)=O)n2)cc1 [Example 21k] :: 6.51
CNC(=O)Nc1ccc(-c2nc(CS(=O)(=O)C3CCCCC3)cc(N3CCOC[C@@H]3C)n2)cc1 [Example 19] :: 6.60

Then this molecule:
In: Please give the measured pIC50 for this molecule: C[C@H]1COCCN1c1cc(CN(C)C2CC2)nc(-c2ccc(NC(=O)Nc3ccccc3)cc2)n1 [Example 30d]
Out: 6.55

====

# tgt: recombinant mTOR (FLAG-tagged, residues 1362-2549) (Homo sapiens, UniProt P42345)
# procedureSummary: In vitro mTOR kinase assay (Test (a), AlphaScreen)
# runConditions: ATP 20 μM, read-out: Test (a): IC50 versus mTOR kinase
pIC50: −log10 of the molar value.
Cut-off 7 on pIC50, inclusive. At or above means class 1; below means class 0.

Example entries and their recorded answers appear below.
C[C@H]1COCCN1c1cc(CS(C)(=O)=O)nc(-c2ccc(N(C)C(=O)Nc3ccccc3)cc2)n1 :: class 0
Cc1csc(S(=O)(=O)Cc2cc(N3CCOC[C@@H]3C)nc(-c3ccc(NC(=O)NC4CC4)cc3)n2)n1 [Example 43i] :: class 1
C[C@H]1COCCN1c1cc(CS(C)(=O)=O)nc(-c2ccc(NC(=O)NCc3cnn(C)c3)cc2)n1 [Example 24g] :: class 0

In: Form field: pIC50 at least 7? Entry: C[C@H]1COCCN1c1cc(CNCCCN(C)C)nc(-c2ccc(NC(=O)NC3CC3)cc2)n1 [Example 49e]
Out: class 1

In: Form field: pIC50 at least 7? Entry: C[C@H]1COCCN1c1cc(C(C)(C)S(C)(=O)=O)nc(-c2cc(F)c(NC(=O)NCc3cnn(C)c3)c(F)c2)n1 [Example 24ae]
Out: class 0
